- target-desc: hERG potassium channel (Homo sapiens)
- Sequence (Q12809 whole entry): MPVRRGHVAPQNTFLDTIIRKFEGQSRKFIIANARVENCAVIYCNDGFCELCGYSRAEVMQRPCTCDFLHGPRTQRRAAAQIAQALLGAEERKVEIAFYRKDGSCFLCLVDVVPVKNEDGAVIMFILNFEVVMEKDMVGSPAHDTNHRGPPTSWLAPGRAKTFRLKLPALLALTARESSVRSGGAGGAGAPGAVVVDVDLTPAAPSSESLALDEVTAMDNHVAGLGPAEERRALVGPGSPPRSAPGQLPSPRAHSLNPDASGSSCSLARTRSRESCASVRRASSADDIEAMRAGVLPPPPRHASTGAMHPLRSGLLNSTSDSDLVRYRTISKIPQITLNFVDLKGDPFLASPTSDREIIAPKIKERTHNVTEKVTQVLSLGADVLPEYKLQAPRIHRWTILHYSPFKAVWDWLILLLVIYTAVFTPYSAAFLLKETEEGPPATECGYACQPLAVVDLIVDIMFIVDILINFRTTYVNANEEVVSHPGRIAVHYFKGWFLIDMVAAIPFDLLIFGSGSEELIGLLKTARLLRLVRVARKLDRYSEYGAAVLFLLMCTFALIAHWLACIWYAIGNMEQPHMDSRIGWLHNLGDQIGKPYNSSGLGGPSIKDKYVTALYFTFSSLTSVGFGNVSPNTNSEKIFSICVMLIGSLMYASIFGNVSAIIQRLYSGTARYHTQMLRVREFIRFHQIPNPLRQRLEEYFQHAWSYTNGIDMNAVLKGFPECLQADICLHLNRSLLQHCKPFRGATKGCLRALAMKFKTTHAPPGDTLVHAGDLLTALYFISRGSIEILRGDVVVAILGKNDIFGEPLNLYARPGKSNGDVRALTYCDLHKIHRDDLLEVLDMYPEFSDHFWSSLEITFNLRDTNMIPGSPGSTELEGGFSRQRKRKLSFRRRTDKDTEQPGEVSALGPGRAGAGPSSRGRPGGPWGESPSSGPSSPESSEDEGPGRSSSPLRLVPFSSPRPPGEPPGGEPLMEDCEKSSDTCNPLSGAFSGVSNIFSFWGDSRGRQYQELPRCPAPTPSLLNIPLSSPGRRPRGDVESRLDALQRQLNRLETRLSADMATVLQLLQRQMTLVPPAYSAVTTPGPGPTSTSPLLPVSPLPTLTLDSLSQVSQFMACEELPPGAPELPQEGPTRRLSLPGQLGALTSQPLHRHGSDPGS
- assay-notes: hERG inhibitory activity assay (automated patch-clamp, CHO-K1 cells)
- condition-set: human, CHO-K1 cells stably expressing hERG
experimental-endpoint: inhibition at 10 µM (%)
Write the number in % without appending the unit.

Assign inhibition at 10 µM to the following record: O=C(N[C@H]1CC[C@@]2(O)[C@H]3Cc4ccc(O)c5c4[C@@]2(CCN3CC2CC2)[C@H]1O5)c1nccs1 [Compound 6]
55.5

----------
- assay-notes: In vivo BBB-penetration studies (LC-MS/MS of brain and plasma)
- Parameters: species or system mouse
- condition-set: Swiss Webster, mouse, plasma, subcutaneous; 10 mg/kg s.c., 30 min, n = 3, mean ± SD; read-out: Plasma concentration
experimental-endpoint: concentration at 30 min
Dear colleague, please send the value followed by its unit.

Assign concentration at 30 min to the following record: O=C(N[C@H]1CC[C@@]2(O)[C@H]3Cc4ccc(O)c5c4[C@@]2(CCN3CC2CC2)[C@H]1O5)c1nccs1 [Compound 6]
1220 ng/mL
